biological target: Bem1-2, P29366; assay: SPOT array; conditions: median of control spots 4347
Sequence (P29366 139-227): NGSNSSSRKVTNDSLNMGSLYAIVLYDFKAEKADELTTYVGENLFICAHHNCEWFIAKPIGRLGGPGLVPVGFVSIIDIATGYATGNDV
Assign SPOT intensity to each entry below.
Please reply with the value in numeric form only.

Given item GSKSGPPPRPKKPST , the value recorded as its SPOT intensity is 2

Notebook: EAEEAAPQLPSRSSA , SPOT intensity read as 0

For record DLFKPLPEPPTELGR the listed SPOT intensity is 0

Record VQQDSLPKLPFRSWG , field SPOT intensity: 0

Input KDKKTKPTPPPKPSH . Output SPOT intensity: 5

Lab note: measured SPOT intensity of FTLPPPPPPPGLDEL was 0
